tested on: MDA-MB-231; conditions: 72 h
Endpoint Label: EC50, CellTiter-Glo (nM)

molecule=O=c1[nH]c(=O)n([C@H]2C[C@H](O)[C@@H](CO)O2)cc1F endpoint_label="EC50, CellTiter-Glo" result_value=687
molecule=COC1=CC(c2cc3ccccc3[nH]2)=N/C1=C\c1[nH]c(C)cc1C endpoint_label="EC50, CellTiter-Glo" result_value=131
molecule=CC(C)C[C@H](NC(=O)[C@H](Cc1ccccc1)NC(=O)c1cnccn1)B(O)O endpoint_label="EC50, CellTiter-Glo" result_value=13.9
molecule=COC(=O)C[C@](O)(CCCC(C)(C)O)C(=O)O[C@@H]1C(OC)=C[C@]23CCCN2CCc2cc4c(cc2[C@H]13)OCO4 endpoint_label="EC50, CellTiter-Glo" result_value=138
molecule=C[C@@]1(C(=O)Nc2ccc(F)nc2)CCCN1c1nc(Nc2cc(C3CC3)n[nH]2)c2cccn2n1 endpoint_label="EC50, CellTiter-Glo" result_value=1770
molecule=COc1cccc2c1C(=O)c1c(O)c3c(c(O)c1C2=O)C[C@@](O)(C(C)=O)C[C@@H]3O[C@H]1C[C@H](N)[C@H](O)[C@H](C)O1 endpoint_label="EC50, CellTiter-Glo" result_value=221
molecule=CC(=O)O[C@H]1C(=O)[C@@]2(C)[C@H]([C@H](OC(=O)c3ccccc3)[C@]3(O)C[C@H](OC(=O)[C@H](O)[C@@H](NC(=O)c4ccccc4)c4ccccc4)C(C)=C1C3(C)C)[C@]1(OC(C)=O)CO[C@@H]1C[C@@H]2O endpoint_label="EC50, CellTiter-Glo" result_value=10.7
molecule=C#Cc1cccc(Nc2ncnc3cc(OC)c(OCCCCCCC(=O)NO)cc23)c1 endpoint_label="EC50, CellTiter-Glo" result_value=689

* * *

test system: CAL-85-1; experiment: normalised response (% of control), CellTox Green; higher = less cell death (100 = DMSO, 0 = benzethonium chloride kill control); settings: incubation time: 72 h
Endpoint Label: normalised response (%)

compound="O=C(c1ccc(OCCN2CCCCC2)cc1)c1c(-c2ccc(O)cc2)sc2cc(O)ccc12 [Raloxifene] (10000 nM)" system_under_test=CAL-85-1 units_of_measure=% result_value=63.3
compound="CC(C)(C)c1cc(NC(=O)Nc2ccc(-c3cn4c(n3)sc3cc(OCCN5CCOCC5)ccc34)cc2)no1 [Quizartinib] (100 nM)" system_under_test=CAL-85-1 units_of_measure=% result_value=107
compound="O=c1[nH]c(=O)n([C@H]2C[C@H](O)[C@@H](CO)O2)cc1F [Floxuridine] (100 nM)" system_under_test=CAL-85-1 units_of_measure=% result_value=87.3
compound="C[C@@H]1C=C2C(=O)O[C@@H]3CC[C@H](C1)[C@]23O [Galiellalactone] (500 nM)" system_under_test=CAL-85-1 units_of_measure=% result_value=93.5
compound="CN(c1ccccc1CNc1nc(Nc2ccc3c(c2)CC(=O)N3)ncc1C(F)(F)F)S(C)(=O)=O (100 nM)" system_under_test=CAL-85-1 units_of_measure=% result_value=102
compound="Cn1c(=O)c(F)c(Nc2ccc(I)cc2F)c2c(=O)n(C[C@@H](O)CO)cnc21 [TAK-733] (100 nM)" system_under_test=CAL-85-1 units_of_measure=% result_value=89
compound="Cc1cc(C(C)Nc2ccccc2)c2nc(N3CCOCC3)cc(=O)n2c1 (stereo not drawn) [TGX-221] (100 nM)" system_under_test=CAL-85-1 units_of_measure=% result_value=114
compound="CC(=O)O[C@H]1C(=O)[C@@]2(C)[C@H]([C@H](OC(=O)c3ccccc3)[C@]3(O)C[C@H](OC(=O)[C@H](O)[C@@H](NC(=O)c4ccccc4)c4ccccc4)C(C)=C1C3(C)C)[C@]1(OC(C)=O)CO[C@@H]1C[C@@H]2O [Paclitaxel] (1000 nM)" system_under_test=CAL-85-1 units_of_measure=% result_value=41.7
compound="C[C@@H]1CCN(C(=O)CC#N)C[C@@H]1N(C)c1ncnc2[nH]ccc12 [Tofacitinib] (50 nM)" system_under_test=CAL-85-1 units_of_measure=% result_value=99.7
compound="COc1ncc(-c2ccc3nccc(-c4ccnnc4)c3c2)cc1NS(=O)(=O)c1ccc(F)cc1F (100 nM)" system_under_test=CAL-85-1 units_of_measure=% result_value=99.1
compound="C#Cc1cccc(Nc2ncnc3cc(OC)c(OCCCCCCC(=O)NO)cc23)c1 [CUDC-101] (10000 nM)" system_under_test=CAL-85-1 units_of_measure=% result_value=-59
compound="COc1ccc(C2=N[C@@H](c3ccc(Cl)cc3)[C@@H](c3ccc(Cl)cc3)N2C(=O)N2CCNC(=O)C2)c(OC(C)C)c1 [Nutlin-3] (1000 nM)" system_under_test=CAL-85-1 units_of_measure=% result_value=108
compound="CN(c1ccccc1CNc1nc(Nc2ccc3c(c2)CC(=O)N3)ncc1C(F)(F)F)S(C)(=O)=O (1000 nM)" system_under_test=CAL-85-1 units_of_measure=% result_value=99.4
